Can you tell me cytotoxicity at 10 µM for the items I'm about to list?
experiment.summary: Toxicity liver stage against HepG2, at 10uM
Format: cell-based
Parameters: test concentration 10 uM, cell line HepG2-A16-CD81EGFP
condition.details: human, HepG2-A16-CD81EGFP cells; read-out: INHIBITION
Give bare numbers, in %.

Cc1nn(CC(C)C)c(C)c1CC(=O)N1CCCC(NS(C)(=O)=O)C1 (stereo not drawn) = 6.29

Value sought for every listed compound: cytotoxicity at 10 µM.
1. Nc1nccc(N[C@H]2CN(CC(=O)NC3CCCCC3)C[C@@H]2C2CC2)n1
2. CC(C)Cn1cc(C(=O)NC2CCS(=O)(=O)C2)c2ccccc2c1=O (stereo not drawn)
3. COCCNC(=O)C1CN(Cc2csc(C)n2)Cc2ccnn2C1 (stereo not drawn)
4. FC(F)(F)c1ccc(-c2noc3c2CN(CC2CCCO2)CC3)cc1 (stereo not drawn)
5. CC(C)Nc1nc2c(s1)C(=O)CN(CC1CC1)C2
6. COCCN1C(=O)CC[C@@H]2[C@H]1CCN2C(=O)C1CCOCC1
7. O=C(Cc1csc(-c2ccccn2)n1)NCCCN1CCCCCC1=O
8. COc1ccc(F)cc1C(=O)N1CCC2(CCC(=O)N(C(C)C)C2)CC1

1: -0.208; 2: 0.724; 3: -74.2; 4: 1.99; 5: -10.1; 6: 9.67; 7: 1.16; 8: -4.75

Please go through the list and note cytotoxicity at 10 µM for each compound.
1. COc1ccccc1C(C)CNC(=O)c1[nH]ncc1Br (stereo not drawn)
2. CCc1ncc(C(=O)c2ccc(OC)cc2)n1C
3. CC(C)=CCN1C[C@@H]2CC[C@H]1CN(C(=O)Cn1c(C)cc(C)nc1=O)C2
4. Cc1cc(C(=O)NCC(C)N2CCc3ccccc32)on1 (stereo not drawn)
5. CCCc1noc(CNC2CCCN(Cc3noc(C4CC4)n3)C2)n1 (stereo not drawn)
6. CS(=O)(=O)N1C[C@H]2CC[C@@H](C1)N(C(=O)CCc1ccsc1)C2
7. CCc1c(C)nc2n(c1=O)CC(C(=O)Nc1nc3c(s1)CCCC3)CS2 (stereo not drawn)
8. O=C(COc1ccc2c(c1)CCC2)N1CCCC(n2cccn2)C1 (stereo not drawn)

[18.1, 14.5, -4.36, -22.8, -13.5, 14.3, 2.17, -2.58]

Return reported cytotoxicity at 10 µM values for all items listed beneath this line.
1. Cc1cnccc1CCNC(=O)Nc1cnc(N(C)C)nc1
2. CN1CCc2[nH]cnc2C12CCN(C(=O)CCc1cccs1)CC2
3. CCN(CC1CCOC1)C(=O)c1ccc(COc2ccccc2C#N)o1 (stereo not drawn)
4. Cc1nc(N(C)C)nc(NCCc2ccccn2)c1C
5. CC(C)(C)OC(=O)N(CCNS(=O)(=O)N1CCOCC1)C1CC1

1: 7.75; 2: -1.19; 3: 3.34; 4: 4.59; 5: -4.43

Form field: reported cytotoxicity at 10 µM of Cc1ccc(C(C)N(C)Cc2nc3c(cnn3C)c(=O)[nH]2)cc1 (stereo not drawn) -3.91
